Reference source for all entries: patent US20170002075A1

Study System: T1, hRAGE (1-331) / human sRAGE 1-331, V#400 (human, UniProt Q15109 23-331)
T1 construct: also called sRAGE [RAGE (1-331)]; RAGE (antigen of the Biacore runs)
T1 sequence (Q15109 23-331): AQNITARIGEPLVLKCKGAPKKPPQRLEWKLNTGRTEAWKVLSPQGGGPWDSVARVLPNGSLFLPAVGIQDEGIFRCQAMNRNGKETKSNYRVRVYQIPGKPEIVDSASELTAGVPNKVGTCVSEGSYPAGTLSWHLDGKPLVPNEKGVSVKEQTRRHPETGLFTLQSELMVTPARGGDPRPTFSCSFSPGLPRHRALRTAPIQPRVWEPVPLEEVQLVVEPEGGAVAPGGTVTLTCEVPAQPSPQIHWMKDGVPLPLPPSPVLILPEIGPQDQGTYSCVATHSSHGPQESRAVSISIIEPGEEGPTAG
Assay Method Text: competition ELISA on coated hRAGE (1-331); competitor biotinylated m11E6 at 0.3 µg/ml
The binders listed here are annotated with their IC50.

Binder	Value Measured
humanized anti-RAGE antibody h11E6.7 (antibody, V domains shown, Full-length humanized antibody transiently produced in 293-6E cells) VH: EIQLVQSGSELKKPGASVKVSCKASGYTFTNFGMNWVRQAPGQGLEWMGYINTNTGESIYSEEFKGRFVFSLDTSVSTAYLQICSLKAEDTAVYFCARSRMVTAYGMDYWGQGTTVTVSS VL: EIVMTQSPATLSLSPGERATLSCKASQNVGTAVAWYQQKPGQAPRLLIYSASNRYTGIPARFSGSGSGTDFTLTISSLQSEDFAVYYCQQYSSYPLTFGQGTKLEIKR	15.5 nM
humanized anti-RAGE antibody h11E6.12 (antibody, V domains shown, Full-length humanized antibody transiently produced in 293-6E cells) VH: EVQLVQSGAEVKKPGASVKVSCKASGYTFTNFGMNWVRQAPGQGLEWMGYINTNTGESIYSEEFKGRVTMTRDTSTSTAYMELSSLRSEDTAVYYCARSRMVTAYGMDYWGQGTSVTVSS VL: EIVMTQSPATLSLSPGERATLSCKASQNVGTAVAWYQQKPGQSPRLLIFSASNRYTGVPARFSGSGSGTDFTLTISSLQSEDFAVYFCQQYSSYPLTFGQGTKLEIKR	11.3 nM
humanized anti-RAGE antibody h11E6.15 (antibody, V domains shown, Full-length humanized antibody transiently produced in 293-6E cells) VH: EIQLVQSGAEVKKPGASVKVSCKASGYTFTNFGMNWVRQAPGQGLEWMGYINTNTGESIYSEEFKGRFTFTLDTSTSTAYMELSSLRSEDTAVYFCARSRMVTAYGMDYWGQGTSVTVSS VL: EIVMTQSPATLSLSPGERATLSCKASQNVGTAVAWYQQKPGQAPRLLIYSASNRYTGIPARFSGSGSGTDFTLTISSLQSEDFAVYYCQQYSSYPLTFGQGTKLEIKR	14 nM

Next binder, please.
The binder humanized anti-RAGE antibody h11E6.4 (antibody, V domains shown, Full-length humanized antibody transiently produced in 293-6E cells) VH: EVQLVQSGSELKKPGASVKVSCKASGYTFTNFGMNWVRQAPGQGLEWMGYINTNTGESIYSEEFKGRFVFSLDTSVSTAYLQICSLKAEDTAVYYCARSRMVTAYGMDYWGQGTTVTVSS VL: EIVMTQSPATLSLSPGERATLSCKASQNVGTAVAWYQQKPGQSPRLLIFSASNRYTGVPARFSGSGSGTDFTLTISSLQSEDFAVYFCQQYSSYPLTFGQGTKLEIKR showed IC50 equal to 14.1 nM
